- Test summary: Displacement of [3H]EK from Opioid receptor delta 1 in guinea pig brain membrane
# note: boundary value 40 nM maps to FALSE; Ki below it maps to TRUE

Solved cases (3 shown):
CN1CC[C@]23c4c5ccc(O)c4O[C@@H]2[C@H](NC(=O)CNC(=O)CCC(=O)NCC(=O)N[C@@H]2CC[C@]4(O)[C@H]6Cc7ccc(O)c8c7[C@@]4(CCN6C)[C@@H]2O8)CC[C@]3(O)[C@H]1C5 :: FALSE
CN1CC[C@]23c4c5ccc(O)c4O[C@H]2[C@@H](NC(=O)CNC(=O)CNC(=O)CCC(=O)NCC(=O)NCC(=O)N[C@H]2CC[C@@]4(O)[C@H]6Cc7ccc(O)c8c7[C@@]4(CCN6C)[C@H]2O8)CC[C@@]3(O)[C@H]1C5 :: FALSE
CN1CC[C@]23c4c5ccc(O)c4O[C@@H]2[C@H](NC(=O)CNC(=O)CNC(=O)CNC(=O)CCC(=O)NCC(=O)NCC(=O)NCC(=O)N[C@@H]2CC[C@]4(O)[C@H]6Cc7ccc(O)c8c7[C@@]4(CCN6C)[C@@H]2O8)CC[C@]3(O)[C@H]1C5 :: FALSE

Alright, here's another compound for you.
Is it true that Ki reported for `O=C(CCC(=O)NCC(=O)NCC(=O)NCC(=O)N[C@@H]1CC[C@@]2(O)[C@H]3Cc4ccc(O)c5c4[C@@]2(CCN3CC2CC2)[C@H]1O5)NCC(=O)NCC(=O)NCC(=O)N[C@@H]1CC[C@@]2(O)[C@H]3Cc4ccc(O)c5c4[C@@]2(CCN3CC2CC2)[C@H]1O5` is less than 40 nM?
TRUE

Data origin: BindingDB's records for doi:10.1021/jm00160a010
